System: Mycobacterium tuberculosis
Test: Cornell M. t heat shock assay; note: in the data most compounds retested in dose-response had high values
Format: functional, organism-based
Parameters: dose or concentration left out as unconfirmed
In all, about 69,000 compounds went through this assay and about 950 (1.4%) showed an effect of 50% or more. The sample as a whole holds a higher share of strong results than the screen did.
Mark False for Percent Effect values under 10%, and True for everything at or above.

CN(C)[C@@H]1CCN(C(=O)Cc2cccs2)[C@H]1Cc1cnn(C)c1.O=C(O)C(F)(F)F | False
COCCC(=O)NC1CCN(CC2(c3cccc(F)c3)CCCC2)CC1.Cl | True
CN(C)[C@@H]1CN(Cc2ccc(O)cc2)C[C@H]1c1cn(C)c2ccccc12.Cl | True

Form field: Percent Effect at least 10%? Entry: CCc1cc(NC2CCN(S(C)(=O)=O)CC2)n2nc(C)c(C)c2n1
True

Form field: Percent Effect at least 10%? Entry: CN1CC(=O)N(c2ccsc2)CC12CCN(C(=O)Nc1ccccc1)C2.O=C(O)C(F)(F)F (stereo not given)
False

Form field: Percent Effect at least 10%? Entry: CCc1nc(-c2ccnc(N3CCNCC3)n2)no1.Cl.Cl
False

Form field: Percent Effect at least 10%? Entry: CC(C)n1c(=O)nc2n1C(=O)N(c1ccc(Cl)cc1)C2
False

Form field: Percent Effect at least 10%? Entry: Cc1nc(CN2C[C@@H]3CN(C(=O)c4ccnnc4)C[C@@H]3C2=O)cs1.O=C(O)C(F)(F)F
False

Form field: Percent Effect at least 10%? Entry: CN(C)[C@@H]1CN(Cc2ccccc2O)C[C@H]1c1cn(C)c2ccccc12.Cl
True
